System: NK-92 (IL-2 2.5 ng/mL)
Test: percent inhibition of viability; higher = more inhibition
Conditions: 72 h; 1000 nM
Kindly apply the following: class 1 if percent inhibition of viability is less than 10%, class 0 in every other case.

Here's what some known entries look like.
Cc1cc(Nc2cc(N3CCN(C)CC3)nc(Sc3ccc(NC(=O)C4CC4)cc3)n2)n[nH]1 [Tozasertib] (max concentration tested 10000 nM) :: class 0
CC(C)(C#N)c1cc(Cn2cncn2)cc(C(C)(C)C#N)c1 [Anastrozole] (max concentration tested 10000 nM) :: class 1
CC(C)N(CCCNC(=O)Nc1ccc(C(C)(C)C)cc1)C[C@H]1O[C@@H](n2cc(Br)c3c(N)ncnc32)[C@H](O)[C@@H]1O [SGC0946] (max concentration tested 10000 nM) :: class 0

Confirm or reject: percent inhibition of viability of COc1ccc(COc2cc3oc(=O)c4cc(C(C)O)ccc4c3cc2OC)cc1 (stereo unspecified) [Palomid-529] (max concentration tested 10000 nM) lies strictly below 10%
class 0

Same again, this time with C[C@@H](Oc1cc(-c2cnn(C3CCNCC3)c2)cnc1N)c1c(Cl)ccc(F)c1Cl [Crizotinib] (max concentration tested 1000 nM)
class 0

Same again, this time with CNc1nc(-c2ccc3c(N)n[nH]c3c2)cc(N2C[C@@H](C(=O)NC3CCCCC3)CC[C@H]2C)n1 (max concentration tested 10000 nM)
class 0

###

Tested on: normal NK cells expanded with K562-aAPC
Experiment: drug sensitivity score (DSS) (DSS units); higher = more sensitive; extreme values may be limits of the assay
Details: 72 h; IL-2 2.5 ng/mL
endpoint-label: drug sensitivity score
One number for each entry.

CCCNC(=O)Nc1ccc(Oc2ncnc3cc(OC)c(OC)cc23)cc1Cl [KRN-633] (max concentration tested 2500 nM) :: 0
COc1cc(C(=O)NC2CCN(C)CC2)c(F)cc1Nc1ncc2c(n1)N(C1CCCC1)CC(F)(F)C(=O)N2C [TAK-960] (max concentration tested 2500 nM) :: 0
O=C(c1cccc(Cl)c1F)N1CCN(Cc2cccc(Nc3nccs3)n2)CC1 [MK-8745] (max concentration tested 2500 nM) :: 2.71
CN(C)Cc1ccc(S(=O)(=O)n2ccc(/C=C/C(=O)NO)c2)cc1 [Resminostat] (max concentration tested 10000 nM) :: 10.6

Below is a list of molecules. For each, state its recorded drug sensitivity score.
1. Cn1cc(CNCC2CCN(c3ncc(C(=O)NO)cn3)CC2)c2ccccc21 [Quisinostat] (max concentration tested 1000 nM)
2. COc1cc2c(Oc3ccc(NC(=O)C4(C(=O)Nc5ccc(F)cc5)CC4)cc3F)ccnc2cc1OCCCN1CCOCC1 [Foretinib] (max concentration tested 1000 nM)

1: 21.9; 2: 5.37

###

Could you please report measured percent inhibition of viability for the items listed next?
Test system: DERL-7 (IL-2 2.5 ng/mL)
Test: percent inhibition of viability; higher = more inhibition
Conditions: 72 h; 10000 nM
Answers are plain numbers, in %.

Examples with their reported percent inhibition of viability follow.
CNC(=O)c1nn(C)c2c1C(C)(C)Cc1cnc(Nc3ccc(N4CCN(C)CC4)cc3)nc1-2 [Milciclib] (max concentration tested 10000 nM) :: 98.4
COc1ccc(COc2cc3oc(=O)c4cc(C(C)O)ccc4c3cc2OC)cc1 (stereo unspecified) [Palomid-529] (max concentration tested 10000 nM) :: 21.1
CN(C)Cc1ccc(S(=O)(=O)n2ccc(/C=C/C(=O)NO)c2)cc1 [Resminostat] (max concentration tested 10000 nM) :: 101
O=C(NC1CCNCC1)c1n[nH]cc1NC(=O)c1c(Cl)cccc1Cl [AT7519] (max concentration tested 10000 nM) :: 100
O[C@H]1CC[C@H](Nc2ncc3nc(Nc4c(F)cc(F)cc4F)n([C@H]4CCOC4)c3n2)CC1 [Tanzisertib] (max concentration tested 10000 nM) :: 18.5
CO[C@@]12[C@H](COC(N)=O)C3=C(C(=O)C(C)=C(N)C3=O)N1C[C@@H]1N[C@@H]12 [Mitomycin C] (max concentration tested 10000 nM) :: 11.3

Below is a list of compounds. For each, state its recorded percent inhibition of viability.
1. Cc1cc(Nc2cc(N3CCN(C)CC3)nc(/C=C/c3ccccc3)n2)n[nH]1 [ENMD-2076] (max concentration tested 10000 nM)
2. O=C(c1cc(Cc2n[nH]c(=O)c3ccccc23)ccc1F)N1CCN(C(=O)C2CC2)CC1 [Olaparib] (max concentration tested 10000 nM)
3. CC[C@@]1(O)C(=O)OCc2c1cc1n(c2=O)Cc2cc3c(CN(C)C)c(O)ccc3nc2-1 [Topotecan] (max concentration tested 10000 nM)
4. NC(=O)c1cccc2cn(-c3ccc([C@@H]4CCCNC4)cc3)nc12 [Niraparib] (max concentration tested 10000 nM)
5. CC(C)C(=O)Nc1ccc([N+](=O)[O-])c(C(F)(F)F)c1 [Flutamide] (max concentration tested 10000 nM)
6. CS(=O)(=O)N1CCc2c(-c3cnc(N)nc3)nc(N3CCOCC3)nc21 (max concentration tested 10000 nM)
7. CN(C)C[C@@H]1CCn2cc(c3ccccc32)C2=C(C(=O)NC2=O)c2cn(c3ccccc23)CCO1 [Ruboxistaurin] (max concentration tested 10000 nM)
8. CC(C)N(CCCNC(=O)Nc1ccc(C(C)(C)C)cc1)C[C@H]1O[C@@H](n2cc(Br)c3c(N)ncnc32)[C@H](O)[C@@H]1O [SGC0946] (max concentration tested 10000 nM)

[100, 31.5, 100, 68.3, 2.11, 85.6, 99.9, 37]

Below is a list of compounds. For each, state its recorded percent inhibition of viability.
1. CCC1=C[C@@H]2CN(C1)Cc1c([nH]c3ccccc13)[C@@](C(=O)OC)(c1cc3c(cc1OC)N(C)[C@H]1[C@@](O)(C(=O)OC)[C@H](OC(C)=O)[C@]4(CC)C=CCN5CC[C@]31[C@@H]54)C2 [Vinorelbine] (max concentration tested 10000 nM)
2. Cc1c(NC(=O)OC[C@@H]2COCCN2)cn2ncnc(Nc3ccc4c(cnn4Cc4cccc(F)c4)c3)c12 (max concentration tested 10000 nM)

1. 100
2. 52.5
